TARGET_SYSTEM: α5β3γ2 receptor (Homo sapiens, UniProt P18507+P31644)
Construct: expressed in transfected cells; host or cells: HEK-293 (stably transfected)
Sequence (P31644 32-462): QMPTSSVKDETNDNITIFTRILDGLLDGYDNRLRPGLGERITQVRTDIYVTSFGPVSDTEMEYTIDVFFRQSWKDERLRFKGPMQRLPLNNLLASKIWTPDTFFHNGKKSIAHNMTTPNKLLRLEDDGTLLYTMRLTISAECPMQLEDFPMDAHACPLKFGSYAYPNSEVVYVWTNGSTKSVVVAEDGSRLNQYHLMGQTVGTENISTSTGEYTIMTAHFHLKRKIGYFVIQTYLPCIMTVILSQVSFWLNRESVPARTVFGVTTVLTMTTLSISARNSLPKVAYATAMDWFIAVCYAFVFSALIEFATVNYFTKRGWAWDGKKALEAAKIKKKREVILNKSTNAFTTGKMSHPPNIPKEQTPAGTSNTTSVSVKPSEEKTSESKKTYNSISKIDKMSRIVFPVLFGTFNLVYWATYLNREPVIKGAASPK
Sequence (P28472 26-473 isoform P28472-2 partner limits assumed): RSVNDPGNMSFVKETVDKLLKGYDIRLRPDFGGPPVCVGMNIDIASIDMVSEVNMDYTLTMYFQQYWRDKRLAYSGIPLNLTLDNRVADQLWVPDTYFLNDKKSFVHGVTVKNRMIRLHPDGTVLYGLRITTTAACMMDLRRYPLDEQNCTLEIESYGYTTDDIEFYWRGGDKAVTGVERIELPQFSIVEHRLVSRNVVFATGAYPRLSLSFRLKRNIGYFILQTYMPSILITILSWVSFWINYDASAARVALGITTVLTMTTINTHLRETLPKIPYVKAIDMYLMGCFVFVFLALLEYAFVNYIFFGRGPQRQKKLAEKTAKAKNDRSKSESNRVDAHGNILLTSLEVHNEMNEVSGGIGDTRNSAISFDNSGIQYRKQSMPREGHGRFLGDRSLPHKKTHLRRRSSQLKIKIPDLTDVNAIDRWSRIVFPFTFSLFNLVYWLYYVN
Sequence (P18507 40-475): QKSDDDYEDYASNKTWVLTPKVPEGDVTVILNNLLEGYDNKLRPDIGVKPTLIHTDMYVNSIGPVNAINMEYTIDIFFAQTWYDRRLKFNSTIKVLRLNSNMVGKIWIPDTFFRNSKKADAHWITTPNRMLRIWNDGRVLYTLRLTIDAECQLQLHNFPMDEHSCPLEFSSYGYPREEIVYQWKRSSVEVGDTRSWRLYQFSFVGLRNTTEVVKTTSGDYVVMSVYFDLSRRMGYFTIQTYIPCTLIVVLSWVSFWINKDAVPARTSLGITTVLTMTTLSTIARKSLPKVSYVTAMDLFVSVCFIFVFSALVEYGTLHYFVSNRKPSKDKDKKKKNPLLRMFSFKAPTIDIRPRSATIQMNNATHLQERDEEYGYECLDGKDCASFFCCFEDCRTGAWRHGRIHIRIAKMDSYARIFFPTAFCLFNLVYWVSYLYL
PROTOCOL: Cell level screening: whole cell patch clamp, inverse agonist efficacy
Format: cell-based
COND: ratio to α5IA; compound 100 nM
I'd appreciate it if you marked entries label 1 when inverse agonism efficacy of the compound/α5IA inverse agonism efficacy is lower than 2 and label 0 when it is not.

{"COMPOUND": "C[C@H](CO)NC(=O)c1ccc(COc2nn3c(-c4cc(CO)on4)nnc3c3ccccc23)c(C#N)c1", "QUALITATIVE_LABEL": "label 1"}
{"COMPOUND": "C[C@H](CO)NC(=O)c1ccc(COc2nn3c(-c4ccoc4)nnc3c3ccccc23)nc1", "QUALITATIVE_LABEL": "label 1"}
{"COMPOUND": "O=C(c1ccc(COc2nn3c(-c4cc(CO)on4)nnc3c3ccccc23)nc1)N1CCOCC1", "QUALITATIVE_LABEL": "label 1"}
{"COMPOUND": "O=C(NCCO)c1ccc(COc2nn3c(-c4cc(CO)on4)nnc3c3ccccc23)nc1", "QUALITATIVE_LABEL": "label 0"}
{"COMPOUND": "O=C(NC1CCOC1)c1ccc(COc2nn3c(-c4cc(CO)on4)nnc3c3ccccc23)nc1 (centres unmarked)", "QUALITATIVE_LABEL": "label 0"}
{"COMPOUND": "COCCNC(=O)c1ccc(COc2nn3c(-c4cc(C)on4)nnc3c3ccccc23)nc1", "QUALITATIVE_LABEL": "label 1"}
{"COMPOUND": "O=C(NN1CCS(=O)(=O)CC1)c1ccc(COc2nn3c(-c4cc(CO)on4)nnc3c3ccccc23)nc1", "QUALITATIVE_LABEL": "label 1"}
{"COMPOUND": "C[C@H](CO)NC(=O)c1ccc(COc2nn3c(-c4ccsc4)nnc3c3ccccc23)nc1", "QUALITATIVE_LABEL": "label 1"}

* * *

Reported inverse agonism efficacy of the compound/α5IA inverse agonism efficacy values are given for each entry in this list.
TARGET_SYSTEM: α5β3γ2 receptor (Homo sapiens, UniProt P18507+P31644)
Construct: expressed in transfected cells; host or cells: HEK-293 (stably transfected)
PROTOCOL: Supplementary data for cell level screening: new electrophysiology method (I. Lecker et al)
Type: cell-based
COND: ratio to the α5IA reference run above in the table (r4 or r29)
MEASURED_METRIC: inverse agonism efficacy of the compound/α5IA inverse agonism efficacy

{"COMPOUND": "Cc1cc(-c2nnc3c4ccccc4c(OCc4ccc(C(=O)N[C@H](C)CO)cn4)nn23)no1", "VALUE_MEASURED": 1.229}
{"COMPOUND": "COCCNC(=O)c1ccc(COc2nn3c(-c4cc(CO)on4)nnc3c3ccccc23)nc1", "VALUE_MEASURED": 2.015}
{"COMPOUND": "O=C(NC1CCC1)c1ccc(COc2nn3c(-c4cc(CO)on4)nnc3c3ccccc23)nc1", "VALUE_MEASURED": 1.151}
{"COMPOUND": "O=C(NCC(F)(F)F)c1ccc(COc2nn3c(-c4cc(CO)on4)nnc3c3ccccc23)nc1", "VALUE_MEASURED": 1.871}
{"COMPOUND": "Cc1cc(-c2nnc3c4ccccc4c(OCc4ccc(C(=O)NCC(F)(F)F)cn4)nn23)no1", "VALUE_MEASURED": 2.796}
{"COMPOUND": "O=C(NC1CCOC1)c1ccc(COc2nn3c(-c4cc(CO)on4)nnc3c3ccccc23)nc1 (centres unmarked)", "VALUE_MEASURED": 1.547}
{"COMPOUND": "Cc1cc(-c2nnc3c4ccccc4c(OCc4ccc(C(=O)NC5CC5)cn4)nn23)no1", "VALUE_MEASURED": 1.526}
{"COMPOUND": "Cc1nc(-c2nnc3c4ccccc4c(OCc4ccc(C(=O)N[C@H](C)CO)cn4)nn23)no1", "VALUE_MEASURED": 1.439}
